Biological target: human ACC2 (Homo sapiens (Human))
Sequence (O00763 129-2458): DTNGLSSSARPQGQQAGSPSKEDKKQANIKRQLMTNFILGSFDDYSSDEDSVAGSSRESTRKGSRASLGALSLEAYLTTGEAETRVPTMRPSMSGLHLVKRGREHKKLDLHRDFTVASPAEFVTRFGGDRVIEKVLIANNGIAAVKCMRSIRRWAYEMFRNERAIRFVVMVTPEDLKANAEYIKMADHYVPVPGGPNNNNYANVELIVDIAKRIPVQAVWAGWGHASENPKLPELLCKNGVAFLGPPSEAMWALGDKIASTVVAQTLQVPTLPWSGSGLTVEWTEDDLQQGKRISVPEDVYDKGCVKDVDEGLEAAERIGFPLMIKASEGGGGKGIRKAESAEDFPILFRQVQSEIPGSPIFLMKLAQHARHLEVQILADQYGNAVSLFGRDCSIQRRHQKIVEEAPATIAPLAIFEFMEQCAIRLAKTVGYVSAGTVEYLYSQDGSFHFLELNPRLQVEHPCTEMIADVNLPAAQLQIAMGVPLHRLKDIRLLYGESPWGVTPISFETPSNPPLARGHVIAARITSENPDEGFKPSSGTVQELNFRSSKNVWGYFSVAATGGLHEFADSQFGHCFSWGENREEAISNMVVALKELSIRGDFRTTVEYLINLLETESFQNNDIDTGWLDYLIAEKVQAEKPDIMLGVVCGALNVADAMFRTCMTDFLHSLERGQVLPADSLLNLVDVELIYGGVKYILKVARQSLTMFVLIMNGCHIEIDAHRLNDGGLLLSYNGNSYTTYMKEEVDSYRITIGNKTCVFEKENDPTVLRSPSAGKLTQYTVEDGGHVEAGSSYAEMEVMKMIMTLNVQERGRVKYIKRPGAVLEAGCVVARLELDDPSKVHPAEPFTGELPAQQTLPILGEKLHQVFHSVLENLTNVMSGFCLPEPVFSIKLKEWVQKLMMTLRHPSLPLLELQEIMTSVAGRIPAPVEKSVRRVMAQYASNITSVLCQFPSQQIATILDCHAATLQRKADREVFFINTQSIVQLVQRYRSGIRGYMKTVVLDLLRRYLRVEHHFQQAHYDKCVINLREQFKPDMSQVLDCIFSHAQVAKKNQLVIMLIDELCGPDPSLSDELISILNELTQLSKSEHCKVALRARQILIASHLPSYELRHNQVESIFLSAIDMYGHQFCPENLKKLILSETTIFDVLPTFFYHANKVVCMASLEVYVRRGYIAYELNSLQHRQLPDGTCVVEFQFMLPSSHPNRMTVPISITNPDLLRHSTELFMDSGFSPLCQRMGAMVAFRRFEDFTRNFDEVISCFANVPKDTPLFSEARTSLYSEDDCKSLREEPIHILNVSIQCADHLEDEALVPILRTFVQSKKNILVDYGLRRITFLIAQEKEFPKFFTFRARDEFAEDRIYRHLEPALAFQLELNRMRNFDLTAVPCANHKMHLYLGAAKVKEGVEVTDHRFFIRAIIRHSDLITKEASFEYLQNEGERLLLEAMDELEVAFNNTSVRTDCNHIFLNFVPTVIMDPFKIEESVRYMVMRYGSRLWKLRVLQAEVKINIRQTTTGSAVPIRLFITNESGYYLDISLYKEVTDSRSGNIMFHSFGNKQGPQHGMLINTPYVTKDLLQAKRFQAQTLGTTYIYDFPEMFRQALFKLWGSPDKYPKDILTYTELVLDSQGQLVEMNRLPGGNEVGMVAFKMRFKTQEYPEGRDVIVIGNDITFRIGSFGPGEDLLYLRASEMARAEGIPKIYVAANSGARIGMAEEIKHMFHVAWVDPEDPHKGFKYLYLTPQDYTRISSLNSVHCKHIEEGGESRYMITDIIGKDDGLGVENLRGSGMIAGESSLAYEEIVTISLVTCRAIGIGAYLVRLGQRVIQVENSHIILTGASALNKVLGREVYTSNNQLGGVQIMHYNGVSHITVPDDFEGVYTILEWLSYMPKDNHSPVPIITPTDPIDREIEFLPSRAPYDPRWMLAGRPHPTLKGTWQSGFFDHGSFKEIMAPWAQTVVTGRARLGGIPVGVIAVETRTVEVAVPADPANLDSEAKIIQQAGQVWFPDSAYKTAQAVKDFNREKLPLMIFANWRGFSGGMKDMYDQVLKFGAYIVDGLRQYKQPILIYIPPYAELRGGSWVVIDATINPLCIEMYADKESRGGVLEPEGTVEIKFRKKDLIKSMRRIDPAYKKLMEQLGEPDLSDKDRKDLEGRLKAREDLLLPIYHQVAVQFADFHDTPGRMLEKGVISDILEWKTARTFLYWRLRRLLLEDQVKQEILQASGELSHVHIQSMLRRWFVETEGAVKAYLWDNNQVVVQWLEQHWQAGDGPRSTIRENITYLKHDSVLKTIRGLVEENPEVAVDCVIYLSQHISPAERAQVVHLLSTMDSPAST
Flag rule - IC50 less than 1000 nM flags True; the remaining entries get False.

Before answering, review these 3 worked examples.
CC(=O)N[C@@H](C)c1ccc(C2CN(c3ccc4c(c3)OCCO4)C2)cc1 [Example 1.27] : True
CC(Cc1ccc(C2CN(c3ccc(OCC4CC4)cc3)C2)cc1)NC(=O)CF (centres unmarked) [Example 3.14] : False
CC(Cc1ccc(C2CN(c3ccc(OCC4CC4)cc3)C2)cc1)NC(=O)C(C)(F)F (centres unmarked) [Example 3.11] : False

**Q:** Dear reviewer, please state whether CC(=O)NC(C)Cc1ccc(C2CN(c3ncc(OCC4CC4(F)F)cc3F)C2)cc1 (centres unmarked) [Example 1.30] has IC50 strictly beneath 1000 nM.
**A:** True

**Q:** Dear reviewer, please state whether COC1CC(C(=O)N[C@@H](C)c2ccc(C3CN(c4ccc(OCC5CC5)cc4)C3)cc2)C1 (some centres unmarked) [Example 3.23] has IC50 strictly beneath 1000 nM.
**A:** False

**Q:** Dear reviewer, please state whether CCOc1ccc(N2CC(c3ccc(CC(C)NC(C)=O)cc3)C2)cc1 (centres unmarked) [Example 1.08] has IC50 strictly beneath 1000 nM.
**A:** True

**Q:** Dear reviewer, please state whether CC(=O)N[C@@H](C)c1ccc(C2CN(c3ccc4c(c3)OCCCO4)C2)cc1 [Example 1.29] has IC50 strictly beneath 1000 nM.
**A:** True

**Q:** Dear reviewer, please state whether C[C@H](NC(=O)c1ccnnc1)c1ccc(C2CN(c3ccc(OCC4CC4)cc3)C2)cc1 [Example 3.58] has IC50 strictly beneath 1000 nM.
**A:** False
